molecular target: stromelysin (Homo sapiens, UniProt P08254)
Sequence (P08254 100-477): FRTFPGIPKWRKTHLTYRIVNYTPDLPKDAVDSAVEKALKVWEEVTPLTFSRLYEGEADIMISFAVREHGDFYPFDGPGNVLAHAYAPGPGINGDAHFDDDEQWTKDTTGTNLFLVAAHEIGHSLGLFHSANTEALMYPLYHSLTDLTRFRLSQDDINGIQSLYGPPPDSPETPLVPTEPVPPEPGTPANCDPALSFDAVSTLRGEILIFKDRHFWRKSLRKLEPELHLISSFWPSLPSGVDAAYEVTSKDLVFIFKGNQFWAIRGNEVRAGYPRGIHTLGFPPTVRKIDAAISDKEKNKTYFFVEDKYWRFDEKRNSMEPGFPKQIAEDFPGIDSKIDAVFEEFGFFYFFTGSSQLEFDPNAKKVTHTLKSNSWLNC
pKi: −log10 of the molar value.
Class 1: pKi at least 7. Class 0: pKi below 7.

Example entries and their recorded answers appear below.
COMPOUND	LABEL VALUE
Cc1ccc(S(=O)(=O)NCC(NS(=O)(=O)c2ccc(C)cc2)C(=O)NO)cc1 (centres unmarked) [Example 4]	0
COc1ccc(S(=O)(=O)NCCC(NS(=O)(=O)c2ccc(OC)cc2)C(=O)NO)cc1 (centres unmarked) [Example 8]	1
Cc1ccc(S(=O)(=O)NCCC(NS(=O)(=O)c2ccc(C)cc2)C(=O)NO)cc1 (centres unmarked) [Example 1]	1

Could you tell me if the measured pKi of O=C(NO)C(CCNS(=O)(=O)c1ccc(F)cc1)NS(=O)(=O)c1ccc(F)cc1 (centres unmarked) [Example 5] reaches 7 or more? 1

Does the reported pKi for Cc1ccc(S(=O)(=O)NCC[C@@H](NS(=O)(=O)c2ccc(C)cc2)C(=O)NO)cc1 [Example 2] fall at or above the 7 mark? 1

Decide: is the reported value of pKi for Cc1ccc(S(=O)(=O)NCC[C@H](NS(=O)(=O)c2ccc(C)cc2)C(=O)NO)cc1 [Example 3] equal to or greater than 7? 1

Check this compound for pKi at or above 7: O=C(NO)[C@H](CCNS(=O)(=O)c1ccccc1)NS(=O)(=O)c1ccccc1 [Example 6] 0

====

biological target: collagenase; experiment: particle concentration fluorescence assay, inhibition of collagenase; settings: in vitro, pH 7.5, room temperature, 15 min preincubation, substrate 1-3 hours
Listed below: Ki values for each entry.
The figure you give is taken to be in nM; do not add the unit.

COMPOUND	UNIT INFO	Ki
O=C(NO)C(CCNS(=O)(=O)c1ccc(F)cc1)NS(=O)(=O)c1ccc(F)cc1 (centres unmarked)	nM	60
Cc1ccc(S(=O)(=O)NCC[C@@H](NS(=O)(=O)c2ccc(C)cc2)C(=O)NO)cc1	nM	43
Cc1ccc(S(=O)(=O)NCCCC(NS(=O)(=O)c2ccc(C)cc2)C(=O)NO)cc1 (centres unmarked)	nM	570

Recorded Ki of COc1ccc(S(=O)(=O)NCCC(NS(=O)(=O)c2ccc(OC)cc2)C(=O)NO)cc1 (centres unmarked) , please. 93

Param item = O=C(NO)[C@H](CCNS(=O)(=O)c1ccccc1)NS(=O)(=O)c1ccccc1 ; retrieve measured Ki. 3000

Can you share its Ki? I mean this compound: Cc1ccc(S(=O)(=O)NCCC(NS(=O)(=O)c2ccc(C)cc2)C(=O)NO)cc1 (centres unmarked) 48

Endpoint output: Ki of Cc1ccc(S(=O)(=O)NCC(NS(=O)(=O)c2ccc(C)cc2)C(=O)NO)cc1 (centres unmarked) . Value? 449

Dear colleague, I am looking for the recorded Ki of the following compound: Cc1ccc(S(=O)(=O)NCC[C@H](NS(=O)(=O)c2ccc(C)cc2)C(=O)NO)cc1 840

====

Molecular target: gelatinase
Assay: particle concentration fluorescence assay, inhibition of gelatinase
Conditions: in vitro, pH 7.5, room temperature, 15 min preincubation, substrate 1-3 hours
Protocol: Inhibitory activity is evaluated in one or more of the MMP enzymes (stromelysin, gelatinase, and collagenase) in vitro using particle concentration fluorescence assay. […] Without an inhibitor present, the substrate is degraded by MMP enzymes and the fluorescein group is removed, therefore, no fluorescent signal can be detected. […] After 15 minutes, the fluorescence values are measured following filtration and washing of the beads. Ki values are then calculated.
Ki strictly under 1 nM means y; at 1 nM or over means n.

MOLECULE	TARGET OR SYSTEM	LABEL VALUE
Cc1ccc(S(=O)(=O)NCC[C@H](NS(=O)(=O)c2ccc(C)cc2)C(=O)NO)cc1 [Example 3]	gelatinase	n

Field: below-cutoff. Rule: recorded Ki strictly less than 1 nM. Subject: Cc1ccc(S(=O)(=O)NCC(NS(=O)(=O)c2ccc(C)cc2)C(=O)NO)cc1 (centres unmarked) [Example 4] n

Does Cc1ccc(S(=O)(=O)NCC[C@@H](NS(=O)(=O)c2ccc(C)cc2)C(=O)NO)cc1 [Example 2] have Ki strictly under 1 nM? n

====

target: gelatinase; assay: particle concentration fluorescence assay, inhibition of gelatinase; conditions: in vitro, pH 7.5, room temperature, 15 min preincubation, substrate 1-3 hours
The threshold is 5 nM. Values of Ki beneath it are tagged yes; values meeting or exceeding it are tagged no.

Check out these entries, answers already filled in.
COMPOUND	LABEL VALUE
Cc1ccc(S(=O)(=O)NCCC(NS(=O)(=O)c2ccc(C)cc2)C(=O)NO)cc1 (centres unmarked)	yes
COc1ccc(S(=O)(=O)NCCC(NS(=O)(=O)c2ccc(OC)cc2)C(=O)NO)cc1 (centres unmarked)	yes
O=C(NO)C(CCNS(=O)(=O)c1ccc(F)cc1)NS(=O)(=O)c1ccc(F)cc1 (centres unmarked)	no

Kindly review the next compound as well.
Determine if O=C(NO)[C@H](CCNS(=O)(=O)c1ccccc1)NS(=O)(=O)c1ccccc1 shows Ki strictly lower than 5 nM. no

Source listed as patent US5859061A.
